Where do the numbers come from? From ChEMBL document CHEMBL4765227.

Tested on: DU-145
ASSAY NAME: Growth inhibition of human DU-145 cells at 10 uM incubated for 48 hrs by sulforhodamine B assay relative to control
Type: functional
RUN PARAMETERS: read-out: GI

SMILES REPR: Cc1ccc(NCC(=O)Nc2ccc(-c3nc4ccccc4s3)cc2)cc1
VALUE UNIT: %
inhibition of growth at 10 µM: 5.52
--
SMILES REPR: O=C(Cn1nnc2ccccc21)Nc1ccc(-c2nc3ccccc3s2)cc1
VALUE UNIT: %
inhibition of growth at 10 µM: 26
--
SMILES REPR: O=C(CNc1nnc(-c2ccc(Cl)cc2)o1)Nc1ccc(-c2nc3ccccc3s2)cc1
VALUE UNIT: %
inhibition of growth at 10 µM: 1.53
--
SMILES REPR: O=C(CNc1nc2ccccc2s1)Nc1ccc(-c2nc3ccccc3s2)cc1
VALUE UNIT: %
inhibition of growth at 10 µM: -5.64
--
SMILES REPR: O=C(CN(c1ccccc1)c1ccccc1)Nc1ccc(-c2nc3ccccc3s2)cc1
VALUE UNIT: %
inhibition of growth at 10 µM: -5.31
--
SMILES REPR: CN1CCN(CC(=O)Nc2ccc(-c3nc4ccccc4s3)cc2)CC1
VALUE UNIT: %
inhibition of growth at 10 µM: 14.8
--
SMILES REPR: O=C(CN1CCOCC1)Nc1ccc(-c2nc3ccccc3s2)cc1
VALUE UNIT: %
inhibition of growth at 10 µM: -9.1
--
SMILES REPR: O=C(CNc1ccccc1)Nc1ccc(-c2nc3ccccc3s2)cc1
VALUE UNIT: %
inhibition of growth at 10 µM: 3.91
--
SMILES REPR: O=C(Cn1ccc2ccccc21)Nc1ccc(-c2nc3ccccc3s2)cc1
VALUE UNIT: %
inhibition of growth at 10 µM: -0.67
--
SMILES REPR: Cc1cc(C)n(CC(=O)Nc2ccc(-c3nc4ccccc4s3)cc2)n1
VALUE UNIT: %
inhibition of growth at 10 µM: -2.89
--
SMILES REPR: Cc1cc(NCC(=O)Nc2ccc(-c3nc4ccccc4s3)cc2)no1
VALUE UNIT: %
inhibition of growth at 10 µM: 4.13
--
SMILES REPR: O=C(CN1C(=O)C(=O)c2ccccc21)Nc1ccc(-c2nc3ccccc3s2)cc1
VALUE UNIT: %
inhibition of growth at 10 µM: 2.58
--
SMILES REPR: O=C(Cn1cncn1)Nc1ccc(-c2nc3ccccc3s2)cc1
VALUE UNIT: %
inhibition of growth at 10 µM: 5.46
--
SMILES REPR: COc1ccc(NCC(=O)Nc2ccc(-c3nc4ccccc4s3)cc2)cc1
VALUE UNIT: %
inhibition of growth at 10 µM: 0.77
--
SMILES REPR: O=C(CNc1c(Cl)cccc1Cl)Nc1ccc(-c2nc3ccccc3s2)cc1
VALUE UNIT: %
inhibition of growth at 10 µM: 14.3
--
SMILES REPR: O=C(Cn1c2ccccc2c2ccccc21)Nc1ccc(-c2nc3ccccc3s2)cc1
VALUE UNIT: %
inhibition of growth at 10 µM: -2.93
--
SMILES REPR: O=C(CNc1nc(-c2ccc(Cl)cc2)cs1)Nc1ccc(-c2nc3ccccc3s2)cc1
VALUE UNIT: %
inhibition of growth at 10 µM: 5.04
--
SMILES REPR: O=C(CN1CCCCC1)Nc1ccc(-c2nc3ccccc3s2)cc1
VALUE UNIT: %
inhibition of growth at 10 µM: 0.74
--
SMILES REPR: O=C(CNc1ccc(Cl)cc1)Nc1ccc(-c2nc3ccccc3s2)cc1
VALUE UNIT: %
inhibition of growth at 10 µM: 29.8
--
SMILES REPR: O=C(CNC1CCCCC1)Nc1ccc(-c2nc3ccccc3s2)cc1
VALUE UNIT: %
inhibition of growth at 10 µM: 10.7
--
SMILES REPR: O=C(Cn1cnc2ccccc21)Nc1ccc(-c2nc3ccccc3s2)cc1
VALUE UNIT: %
inhibition of growth at 10 µM: 21.8
--
SMILES REPR: O=C(Cn1ccnc1)Nc1ccc(-c2nc3ccccc3s2)cc1
VALUE UNIT: %
inhibition of growth at 10 µM: 18.9
--
SMILES REPR: NS(=O)(=O)c1ccc(NCC(=O)Nc2ccc(-c3nc4ccccc4s3)cc2)cc1
VALUE UNIT: %
inhibition of growth at 10 µM: 53
--
SMILES REPR: O=C(CNCc1ccccc1)Nc1ccc(-c2nc3ccccc3s2)cc1
VALUE UNIT: %
inhibition of growth at 10 µM: -7.09
